Hello, the source for this data is PubChem BioAssay AID1963967, in case you need it.

Test system: 855422-203-R-J1-PDC spheroids with HUVEC/MSC, viability;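 further: agents incubated with spheroids for one week before read-out; 100% = DMSO vehicle-treated control wells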
Assay: Anticancer human tumor 855422-203-R-J1-PDC patient-derived bladder carcinoma cell line growth inhibition [PI3K]
Details: second compound 0.01 µM; first compound 0.0316 µM; active compounds read low
Experimental Readout: viability, T/C (%)
Kindly answer with a numeric value in %, unit omitted.

Compound	Study System	Experimental Readout	Recorded Result
Cn1nccc1Nc1nccc(-c2ccn(C(CO)c3ccc(Cl)c(F)c3)c(=O)c2)n1 (stereo not drawn) + COc1c(OCCCN2CCOCC2)ccc2c3n(c(=NC(=O)c4cnc(N)nc4)nc12)CCN3	855422-203-R-J1-PDC spheroids with HUVEC/MSC, viability	viability, T/C	88.8
CC1(C)CCC(CN2CCN(c3ccc(C(=O)NS(=O)(=O)c4ccc(NCC5CCOCC5)c([N+](=O)[O-])c4)c(Oc4cnc5[nH]ccc5c4)c3)CC2)=C(c2ccc(Cl)cc2)C1 + COc1c(OCCCN2CCOCC2)ccc2c3n(c(=NC(=O)c4cnc(N)nc4)nc12)CCN3	855422-203-R-J1-PDC spheroids with HUVEC/MSC, viability	viability, T/C	91

[Q] I would be grateful if you could share the reported viability, T/C for Cn1ncc(Cl)c1-c1cc(C(=O)NC(CN)Cc2cccc(F)c2)sc1Cl (stereo not drawn) + CC(Nc1ccc2c(c1)OCCn1cc(N3C(=O)OCC3C(F)F)nc1-2)C(N)=O .
[A] 89.3
